Data provenance is the nanobody polyreactivity screen of Harvey et al. (2022).

Test description: yeast display, Sf9 membrane polyspecificity reagent, FACS + sequencing; frameworks hold sequencing errors
Experimental readout: polyreactivity (PSR sort gate)

Sequence chain | Reading
QVQLVESGGGLVQAGGSLRLSCAASGSTFYGNAMAWYRQAPGKEREFVAAISSGGRTYYADSVKGRFTISRDNAKNTVYLQMNSLKPEDTAVYYCAVRRSAFYARFGRNYWGQGTQVTVSS | low polyreactivity
QVQLVESGGGLVQAGGSLRLSCAASGRTFRYYAMGWYRQAPGKERELVAAIDTSSGSTYYADSVKGRFTISRDNAKNTVYLQMKSLKPEDTAVYYCNATWWIPLFYDYWGQGTQVTVSS | low polyreactivity
QVQLVESGGGLVQAGGSLRLSCAASGRIFGSYVMGWYRQAPGKERELVAAISFSGDTTYYADSVKGRFTISRDNAKNTVYLQMNSLKPEDTAVYYCAAEFPQGYYAFKYDYWGQGTQVTVSS | high polyreactivity
QVQLVESGGGLVQAGGSLRLSCAASGSTFGGNAMGWYRPAPGKERELVAGITSSGTSTYYADSVKGRFTISRDNAKNTVYLQMNSLKPEDTAVYYCATDEADESYGFELFDYWGQGTQVTVSS | low polyreactivity
QVQLVESGGGLVQAGGSLRLSCAASGSTFPDNAMGWYRQAPGKERELVAAISFSSGSTYYADSVKGRFTISRDNAKNTVYLQMNSLKPEDTAVYYCAVANPSPYEWIAYYYWGQGTQVTVSS | low polyreactivity

List reported polyreactivity (PSR sort gate) for each of these sequences:
1. QVQLVESGGGLVQAGGSIRLSCAASGITFYRNARGWYRQAPGKEMELVAAITWNGGRTYYADSVKGRFTISRDNAKNTVYLQMNSLKPEDTAVYYCAAAYPTYRHYYWGQGTQVTVSS
2. QVQLVESGGGLVQAGGSLRLSCAASGFTFVYYAMGWYRPAPGKERELVAAISRGGSTYYADSVKGRFTISRDNAKNTVYLQMNSLKPEDTAVYYCNAKKSGLYVSYPAYDYWGQGTQVTVSS

Output:
1: low polyreactivity; 2: low polyreactivity

For each of the sequences below, state polyreactivity (PSR sort gate).
1. QVQLVESGGGLVQAGGSLRLSCAASGRTFRVYAIGWYRQAPGKERELVAAISGSGGSTYYADSVKGRFTISRDNAKNTVYLQMISLKPEDTAVYYCAKGSYRSYWYRAYDYWGQGTQVTVSS
2. QVQLVESGGGLVQAGGSLRLSCAASGRIFPRNTMGWYRQAPGKERELVAAISQSGGRTYYADSVKGRFTISRDYAKNTVYLQMNSLKPEDTAVYYCAAREYRYDMYYWGQGTQVTVSS

Output:
["low polyreactivity", "high polyreactivity"]

For each of the sequences below, note its polyreactivity (PSR sort gate).
1. QVQLVESGGGLVQAGGSLRLSCAASGRTFYGYGMGWFRQAPGTDRELVAAIRVGGGSTYYADSVKGRFTISRDNAKNTVYLQMNILKPEDTAVYYCASAIYHYRQKDGYWGQGTQVTVSS
2. QVQLVESGGGLVQAGGSLRLSCAASGLTFGRYAMGWYRQAPGKERELVAAITWIGDGTYYGDSVKGRFTISRDNAKKTVYLQMNSLTPEDTAVYYCAAVYYTYLYGRYNYWGQGTQVTVSS
3. QVQLVESGGGLVQAGGSLRLSCAASGFTFKLNAMGWYRQAPGKERELVAAISWGGGTTYYADSVKGRFTISRDNAKNTVYLQMNSLKPEDTAVYYCAADGTGTYDYWGQGTQVTVSS
4. QVQLVESGGGLVQAGGSLRLSCAASGRIFRYYAMGWYRQAPGQERELVAAITWSGGSTYYADSVKGRFTISRDNAKNTVYLQMNSLKPEDTAVYYCNAKSYQPFHGDYWGQGTQVTVSS
5. QVHLVESGGGLVQAGGSLRLSCAASGFILPYYAMGWYRQAPGKERELVAAISRSGGGTYYADSVKGRFTISRDNAKNTVYLQMNSLKPEDTAVYYCAADYSAYEYEYWGQGTQVTVSS

Output:
["high polyreactivity", "low polyreactivity", "low polyreactivity", "low polyreactivity", "high polyreactivity"]

Parameter requested: polyreactivity (PSR sort gate). Apply to each item below.
1. QVQLVESGGGLVQAGGSLRLSCAASGRIFYFYAMGWYRQAPGKERELVAAITSGGGTYYADSVKGRFTISRDNAKNTVYLQMNSLKPEDTAVYYCDVRVYRTSWQGYYYWGQGTQVTVSS
2. QVQLVESGGGLVQAGGSLRLSCAASGRTFYPYAMGWYRQAPGKERELVARITSGGSTYADSVKGRFTISRDNAKNTVYLQMNSLKPEDTAVYYCNTDGYLLSRYPYSVQLYEYWGQGTQVTVSS

Output:
["high polyreactivity", "high polyreactivity"]
